Each record here notes measured TGI.
system: MOLT-4 leukemia; assay: NCI tumour cell line growth inhibition, 48 h
The figure you give is taken to be in µM; do not add the unit.

Look over these answered cases.
Return reported TGI; argument: `CC1(C)C=C(/C=N/Nc2ccc(Br)cc2)C(C#N)=C(O)C1(C#N)C#N`
89.8

Return reported TGI; argument: `C#CCOc1ccc2ncnc(Nc3ccc(NC(=O)CCl)cc3)c2c1`
17.7

Return reported TGI; argument: COc1cc2ccc1-c1cc(ccc1O)CC1c3cc4c(cc3CCN1C)Oc1c(OC)cc3c(c1O4)C(C2)N(C)CC3 (stereo not given)
4.22

Return reported TGI; argument: `NC(N)=N/N=C/c1cccc(Cl)c1Cl`
23.9

Continue with the next compound.
Return reported TGI; argument: `O=C1C(Cl)=C(Nc2cccc(C(F)(F)F)c2)C(=O)N1Cc1ccccc1Cl`
8.53

---

test system: SR leukemia; experiment: NCI tumour cell line growth inhibition, 48 h
Each record here notes measured TGI.

Look over these answered cases.
What is its TGI for SR leukemia? Entry: CC12CCc3ccccc3C1=Nc1ccccc12 (stereo not drawn)
> 100 µM

What is its TGI for SR leukemia? Entry: `NC(=O)c1csc(CCCCCCc2nc(C(N)=O)cs2)n1`
> 100 µM

Continue with the next molecule.
What is its TGI for SR leukemia? Entry: `CC1=NN2C(=O)CC(=O)N=C2S1`
> 100 µM

---

system: M14 melanoma; test: NCI tumour cell line growth inhibition, 48 h
Each record here notes measured TGI.
The figure you give is taken to be in µM; do not add the unit.

Look over these answered cases.
Return reported TGI; argument: `CCCCCCNC(=O)Oc1ccc(/C(=C(\C)c2ccccc2)c2ccc(OCCN3CCCCC3)cc2)cc1`
3.97

Return reported TGI; argument: CCOC(=O)C1=C(C)N(C)C(=S)NC1c1cccc(O)c1 (stereo not given)
83.1

---
Return reported TGI; argument: `O=C1/C(=C/c2ccc([N+](=O)[O-])s2)Oc2ccccc21`
3.57

Return reported TGI; argument: `CCc1ccccc1-n1c2nc(=O)n(C)c(=O)c-2nc2ccccc21`
20.8

---

test system: UO-31 renal; experiment: NCI tumour cell line growth inhibition, 48 h
OUTCOME MEASURE: GI50

Return reported GI50; argument: `C#CCOc1ccc2ncnc(Nc3ccc(NC(=O)CCl)cc3)c2c1`
8450 nM

---
Return reported GI50; argument: `CCOC(=O)CNC(=O)CCCn1c(=O)c2c3ccccc3n(C)c2n2nnc(-c3ccccc3)c12`
47800 nM

Return reported GI50; argument: `Oc1ccc(Br)cc1/C=N/NC(=S)NC12CC3CC(CC(C3)C1)C2`
1330 nM

Return reported GI50; argument: Cc1ccc(C2SCc3nc4ccc(C(=O)c5ccccc5)cc4n32)cc1 (stereo unspecified)
17000 nM

Return reported GI50; argument: `CCCCCC(=O)OCC(=O)O[C@@H]1C[C@]2(C(C)C)O[C@@]1(C)[C@@H]1CC[C@@H](C)[C@H]1[C@@H]2OC(=O)/C=C/c1ccccc1`
40.8 nM

Return reported GI50; argument: `N=C(N)c1ccc(-c2ccc(-c3ccc(Cl)cn3)s2)cc1`
1680 nM

Return reported GI50; argument: `COc1cccc(Cn2cc3c(c2)-c2oncc2CC3)c1`
671 nM

Return reported GI50; argument: `CCOC(=O)c1cc2cc(NC(=O)c3cc4cc([N+](=O)[O-])ccc4n3C)ccc2n1C`
> 100000 nM

Return reported GI50; argument: `O=C(NCCN1CCOCC1)Nc1ccc(-c2cc3c(Nc4ccc(Oc5cccc(C(F)(F)F)c5)c(Cl)c4)ncnc3s2)cc1`
801 nM

Return reported GI50; argument: `BrC(Br)(Br)c1cnc2ccccc2n1`
793 nM

Return reported GI50; argument: COc1cc(/C=C2\CC3C4CC=C5C[C@@H](N6CCCC6)CC[C@]5(C)C4CC[C@]3(C)[C@H]2OC(C)=O)ccc1OCCN1CCCCC1 (stereo partly specified)
1460 nM

Return reported GI50; argument: `CCCCCCNC(=O)Oc1ccc(/C(=C(\C)c2ccccc2)c2ccc(OCCN3CCCCC3)cc2)cc1`
1380 nM

Return reported GI50; argument: `C[C@@H]1CC[C@H]2C(COC/C=C/COCC3=C(C(F)(F)F)O[C@@H]4O[C@@]5(C)CC[C@H]6[C@H](C)CC[C@@H]3[C@@]46OO5)=C(C(F)(F)F)O[C@@H]3O[C@@]4(C)CC[C@@H]1[C@]32OO4`
786 nM

Return reported GI50; argument: Cc1ccc2[nH]c(C(=O)NN3C(=O)CSC34CCCC(C)C4)c(-c3ccccc3)c2c1 (stereo unspecified)
27.4 nM

Return reported GI50; argument: `Oc1ccc(/C=N/Nc2nc3ccccc3s2)c(O)c1`
341 nM

Return reported GI50; argument: COc1ccccc1CNC(=O)C1c2ccccc2C(=O)N(CC(C)C)C1c1cccs1 (stereo unspecified)
17700 nM

Return reported GI50; argument: `O=C(NCCCNC(=O)OCc1ccc2c(Br)cc(Br)c(O)c2n1)OCc1ccc2c(Br)cc(Br)c(O)c2n1`
> 100000 nM

Return reported GI50; argument: `CCOC(=O)N1C/C(=C/c2ccc(OC)cc2)C(=O)/C(=C/c2ccc(OC)cc2)C1`
1900 nM

Return reported GI50; argument: `CN(C)CCOc1nc2c3cccnc3cc(-c3cccc(Cl)c3)c2c2ncccc12`
1090 nM

Return reported GI50; argument: `Cc1ccccc1-n1c(/C=C\c2ccccn2)nc2ccccc2c1=O`
7510 nM

---

Each record here notes measured TGI.
tested on: NCI/ADR-RES ovarian; assay: NCI tumour cell line growth inhibition, 48 h
The figure you give is taken to be in µM; do not add the unit.

Return reported TGI; argument: `Oc1cc(O)cc(/C=C/c2ccc(O)c(O)c2)c1`
51

Return reported TGI; argument: `CC(=O)n1nc(-c2nc3ccccc3nc2Cl)cc1Cl`
55.8

Return reported TGI; argument: `CCN(CC)CCCCCOc1cc(O)c2c(=O)cc(-c3ccccc3)oc2c1`
11.6

---
Return reported TGI; argument: `O=C(N=Nc1c(O)[nH]c2c(Cl)cc(Cl)cc12)c1ccncc1`
69.4

---

system: OVCAR-3 ovarian; experiment: NCI tumour cell line growth inhibition, 48 h
Each record here notes measured TGI.
The figure you give is taken to be in µM; do not add the unit.

Return reported TGI; argument: Cc1ccc2[nH]c(C(=O)NN3C(=O)CSC34CCCC(C)C4)c(-c3ccccc3)c2c1 (stereo not given)
30.3

---
Return reported TGI; argument: `CC(F)(F)c1cc(F)ccc1-c1sc2cc(O)ccc2c1Oc1ccc(/C=C/C(=O)O)cc1`
20.9

---

Each record here notes measured TGI.
tested on: ACHN renal; assay: NCI tumour cell line growth inhibition, 48 h

Look over these answered cases.
Return reported TGI; argument: `Cc1cc(S(=O)(=O)Nc2nc(N)nc(N3CCOCC3)n2)c(SCC(=O)O)cc1Cl`
> 10 µM

Return reported TGI; argument: `CN(C)[C@@H]1C(=O)C(C(=O)NCNCCCC(=O)O)=C(O)[C@@]2(O)C(=O)C3=C(O)c4c(O)cccc4[C@@](C)(O)[C@H]3C[C@@H]12`
> 100 µM

Return reported TGI; argument: `CCN(CC)Cc1ccc2cccnc2c1O`
> 100 µM

Continue with the next compound.
Return reported TGI; argument: `C=C(C)[C@@H]1CC[C@@H](C)[C@](O)([C@@H]2C[C@@H]([C@H](COC(=O)c3ccccc3)OC(=O)c3ccccc3)OC2=O)C1`
> 100 µM

---

system: UACC-257 melanoma; assay: NCI tumour cell line growth inhibition, 48 h
OUTCOME MEASURE: TGI

Look over these answered cases.
Return reported TGI; argument: `O=[N+]([O-])/C(Cl)=C(\Nc1ccccc1)C(Cl)=C(Cl)Cl`
> 100 µM

Return reported TGI; argument: `O=C1/C(=C/c2ccc(Cl)cc2)NC(=S)N1CN1CCOCC1`
> 100 µM

Return reported TGI; argument: `COC(=O)[C@@H](Cc1c[nH]c2ccccc12)NC(=O)/C=C/c1ccccc1`
> 100 µM

Return reported TGI; argument: CC(=O)OCC(OC(C)=O)C(OC(C)=O)C(OC(C)=O)C(=O)CNn1c(-c2ccccc2)nc2ccc(Br)cc2c1=O (stereo not given)
> 100 µM

Return reported TGI; argument: `Oc1ccc(/C=N/Nc2nc3ccccc3s2)c(O)c1`
14.2 µM

Return reported TGI; argument: `O=C(CCC(=O)N/N=C/c1ccccc1O)N/N=C/c1ccccc1O`
> 100 µM

Return reported TGI; argument: `CC(F)(F)c1cc(F)ccc1-c1sc2cc(O)ccc2c1Oc1ccc(/C=C/C(=O)O)cc1`
57.5 µM

Return reported TGI; argument: COC1C=C(NCC2(CO)CCC2)NC(N)=N1 (stereo not given)
> 100 µM

Return reported TGI; argument: `Oc1ccc(Br)cc1/C=N/NC(=S)NC12CC3CC(CC(C3)C1)C2`
6.96 µM

Return reported TGI; argument: `Cc1cn(CC2=NCC(C)(C)CN2)c(=O)[nH]c1=O`
> 100 µM

---
Return reported TGI; argument: `Cn1cc2c(=O)n3ncn(-c4ccc(Br)cc4)c3nc2n1`
> 100 µM

Return reported TGI; argument: `COc1cc(OC)c(OC)cc1/C=C1\C=Cc2ccccc21`
37.7 µM

Return reported TGI; argument: `Nc1nc(N)nc(-c2cnccn2)n1`
> 100 µM

Return reported TGI; argument: `O=C(/C=C/c1c(O)ccc2ccccc12)c1cccc2ccccc12`
> 100 µM

Return reported TGI; argument: `COc1ccc2nc3cc([N+](=O)[O-])ccc3c(NNc3ccc(Cl)cc3)c2c1`
> 100 µM

Return reported TGI; argument: CC(=O)OC1OC2C(NC(=O)OC(C)(C)C)C1CC2(OCc1ccccc1)OCc1ccccc1 (stereo not given)
37.9 µM

Return reported TGI; argument: CC(=O)c1c(O)ccc2c1CC(CC=O)O2 (stereo not given)
> 100 µM

Return reported TGI; argument: `Cn1c2ccccc2c(=O)c2c(O)cc3c(c21)C=CC1(CCCC1)O3`
> 100 µM

Return reported TGI; argument: CC1(C)[C@@H]2C[C@H]1C(Cc1ccc(C[C@H]3c4cc(-c5ccccn5)ncc4[C@H]4C[C@@H]3C4(C)C)cc1)c1cc(-c3ccccn3)ncc12 (stereo not given in full)
> 100 µM

Return reported TGI; argument: `C[C@@H]1CC[C@H]2C(COC/C=C/COCC3=C(C(F)(F)F)O[C@@H]4O[C@@]5(C)CC[C@H]6[C@H](C)CC[C@@H]3[C@@]46OO5)=C(C(F)(F)F)O[C@@H]3O[C@@]4(C)CC[C@@H]1[C@]32OO4`
11.8 µM

Cited source: PubChem BioAssay (NCI)
